- target_desc: Amyloid-beta precursor protein (Homo sapiens) (UniProt P05067)
- Sequence (P05067 whole entry): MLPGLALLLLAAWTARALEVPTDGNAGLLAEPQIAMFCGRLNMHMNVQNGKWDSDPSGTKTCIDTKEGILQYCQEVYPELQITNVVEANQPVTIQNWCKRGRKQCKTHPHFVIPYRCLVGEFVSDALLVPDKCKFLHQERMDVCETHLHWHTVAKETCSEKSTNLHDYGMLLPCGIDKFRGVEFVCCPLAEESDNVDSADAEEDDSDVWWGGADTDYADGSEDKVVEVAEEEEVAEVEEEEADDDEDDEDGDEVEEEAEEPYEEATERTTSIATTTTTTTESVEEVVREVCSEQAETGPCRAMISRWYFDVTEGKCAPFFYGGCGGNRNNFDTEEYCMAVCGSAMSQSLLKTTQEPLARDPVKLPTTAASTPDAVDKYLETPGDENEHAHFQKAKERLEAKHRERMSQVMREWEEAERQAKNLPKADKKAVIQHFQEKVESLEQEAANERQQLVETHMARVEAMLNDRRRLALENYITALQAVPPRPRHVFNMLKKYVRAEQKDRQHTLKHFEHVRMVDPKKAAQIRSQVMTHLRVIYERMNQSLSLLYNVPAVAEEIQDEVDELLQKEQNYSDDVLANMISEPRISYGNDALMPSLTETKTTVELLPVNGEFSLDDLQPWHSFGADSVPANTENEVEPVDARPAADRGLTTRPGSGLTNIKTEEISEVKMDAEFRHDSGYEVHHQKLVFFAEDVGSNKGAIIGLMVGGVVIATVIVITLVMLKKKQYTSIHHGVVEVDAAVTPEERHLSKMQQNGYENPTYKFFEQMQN
- procedure_text: Inhibition of amyloid beta (1 to 42 ) (unknown origin) aggregation at 10 uM after 20 hrs by thioflavin-T fluorescence method relative to control
reported_property: inhibition (%)

These recorded examples may help you get a feel for the data.
Ask: Write down inhibition measured for item COc1ccc2cc3[n+](cc2c1OC)CCc1cc(O)c(O)cc1-3.[Cl-]
Result: 27

Ask: Identify inhibition associated with the compound COc1ccc2cc3[n+](cc2c1OC)CCc1cc2c(cc1-3)OCO2.[Cl-] [BERBERINE CHLORIDE]
Result: 32

Ask: # return recorded inhibition for input Oc1cc2c(cc1O)-c1cc3ccc(O)c(O)c3c[n+]1CC2.[Cl-]
Result: 72

Ask: Answer with reported inhibition of Oc1cc2c(cc1O)C1Cc3ccc(O)c(O)c3CN1CC2 (configuration not stated)
Result: 78

(A) COc1c(O)ccc2cc3[n+](cc12)CCc1cc(O)c(O)cc1-3.[Cl-]
(B) O=C1C=C(c2ccc(O)c(O)c2)OC(c2cc(O)ccc2O)C1 (configuration not stated)
(C) COc1c(O)ccc2c1CN1CCc3cc(O)c(O)cc3C1C2 (configuration not stated)
Ask: List by increasing inhibition. Use the labels to give the ranking in the order requested.
Result: A, C, B
(A: 39%, C: 61%, B: 100%)

---

- procedure_text: Cytotoxicity against rat PC12 cells assessed as reduction in cell viability incubated for 24 hrs by WST-8 assay
- Assay type: cell-based, PC-12
reported_property: CC50 at 24 h (µM)
Output spec: scalar in µM, unitless text.

Some solved cases for reference:
Ask: Complete the entry with CC50 at 24 h for COc1c(O)ccc2cc3[n+](cc12)CCc1cc(O)c(O)cc1-3.[Cl-]
Result: 39

Ask: For the molecule COc1c(O)ccc2c1CN1CCc3cc(O)c(O)cc3C1C2 (configuration not stated) , report CC50 at 24 h.
Result: 91

Ask: Read the entry COc1ccc2ccn(CCc3cc4c(cc3Br)OCO4)c(=O)c2c1OC and write its reported CC50 at 24 h.
Result: 132

Ask: Input O=C1C=C(c2ccc(O)c(O)c2)OC(c2cc(O)ccc2O)C1 (configuration not stated) , output reported CC50 at 24 h.
Result: 114

Ask: Identify measured CC50 at 24 h corresponding to COc1ccc2cc3n(c(=O)c2c1OC)CCc1cc2c(cc1-3)OCO2
Result: 137

Further cases:
Ask: Supply CC50 at 24 h value. Item: COc1cc(/C=C/C(=O)CC(=O)/C=C/c2ccc(O)c(OC)c2)ccc1O
Result: 44

Ask: Indicate its recorded CC50 at 24 h; the molecule in question is COc1ccc2cc[nH]c(=O)c2c1OC
Result: 129

---

- procedure_text: Cytotoxicity against rat PC12 cells assessed as reduction in cell viability incubated for 24 hrs by WST-8 assay
- Type: cell-based, PC-12
reported_property: CC50 at 24 h

Some solved cases for reference:
Ask: Entry Oc1cc2c(cc1O)C1Cc3ccc(O)c(O)c3CN1CC2 (stereo unspecified) needs its CC50 at 24 h filled in; supply it.
Result: 114 µM

Ask: Give reported CC50 at 24 h value for CCOC(CNC(=O)c1cccc(OC)c1OC)OCC
Result: > 150 µM

Ask: Give the measured CC50 at 24 h for COc1ccc2c(c1OC)CN1CCc3cc4c(cc3C1C2)OCO4 (stereo unspecified) [TETRAHYDROBERBERINE]
Result: > 150 µM

Ask: Could you please provide reported CC50 at 24 h for COc1ccc2cc3[n+](cc2c1OC)CCc1cc(O)c(O)cc1-3.[Cl-] ? Thanks!
Result: > 150 µM

Ask: For the molecule COc1ccc2cc3[n+](cc2c1OC)CCc1cc2c(cc1-3)OCO2.[Cl-] [BERBERINE CHLORIDE] , give its reported CC50 at 24 h.
Result: > 150 µM

Turning now to a further molecule:
Ask: Name the recorded CC50 at 24 h of the molecule listed here: Oc1cc2c(cc1O)-c1cc3ccc(O)c(O)c3c[n+]1CC2.[Cl-]
Result: 9.8 µM

meta.source: ChEMBL document CHEMBL4732228
